# Tested on: gene editing with dCas9
# experimental details: Screen of 322 new SSAP proteins, gene editing activity with dCas9 (Table 5)
# Assay type: cell-based
# study conditions: normalized
Provide the reported dCas9 with SSAP activity (normalized) of each item.
One number for each entry.

SSAP_99: SEQ ID NO: 268; Pseudomonas stutzeri (protein, listed as Pseudomonas stutzeri) STENVAPFSQKDMQQATGQQVKPRSPADSLAAMLASPKMKAQFAAALPKHMTAERMARIVTTEIRKTPALVKCDQHSFLGSVIQCAQLGLEPGNSLGHAYLLPYGNQVQLIIGYRGMIDLARRSGQIVSLSARTVREHDEFDYQLGLHEDLTHKPFEGEHAGEITHVYAVARLQGGGVQFEVMSKAQVEAVRAQSKAGKSGPWVSHWEEMAKKTVIRRLFKYLPVSVEIQRAVTLDEAAEAGLPQGNEYVFDGDFEVVNDASGAQQ: −0.891

// moving on: another record for dCas9 with SSAP activity (normalized)
May I ask what dCas9 with SSAP activity (normalized) has been recorded for SSAP_243: SEQ ID NO: 412; Nocardia puris (protein, listed as Nocardia puris) AESISSEVARQASPLAVVARYRSELAGSLPAAVRHDVDRWLMVAEMAVRRSPDLMEIVRRDQGASLMRALIECARLGHEPGSPEFYLIPRGGIVSGEESYRGIIKRILNSGEYQRVVARVVHERDRFSFDPRIDEIPDHRPAEGERGAPARAYAFAVRWDGTPSTVGEATPERIIAAKAKARGVDRKDSPWNSPTGVMYRKTAIRELASYVHTSAEPRPRPAAPTEPPAVDEVSTVYDAEVIDEVDVLDITAEPTA ?
−1.036
